Origin of values: patent US5965699A

Target: botox A (Clostridium botulinum)
Assay type: biochemical
Settings: read-out: Km
property label: Km

Form field: Km recorded for Ac-SNKTRIDEANQRATKM-NH2 [[1-16], S N K T R I D E A N Q R A T K M] with botox A (Clostridium botulinum) (enter value)
1600 µM

Which measured Km belongs to Ac-SNKTRIDEANQRASKML-NH2 [T14S, S N K T R I D E A N Q R A S K M L] , tested on botox A (Clostridium botulinum)?
~1200 µM

GET /values?readout=Km&system=botox A (Clostridium botulinum)&item= Ac-SNKTRIDEANQRATKAL-NH2 [M16A, S N K T R I D E A N Q R A T K A L]
1900 µM

Any idea what Km came out for Ac-SNKTRIDEANNRATKML-NH2 [Q11N, S N K T R I D E A N N R A T K M L] on botox A (Clostridium botulinum)?
750 µM

Query for botox A (Clostridium botulinum): what Km does the record show for Ac-SNKTRIDQANQRATKML-NH2 [E8Q, S N K T R I D Q A N Q R A T K M L] ?
750 µM

Which measured Km belongs to Ac-SNKTRINEANQRATKML-NH2 [D7N, S N K T R I N E A N Q R A T K M L] , tested on botox A (Clostridium botulinum)?
820 µM

Give the reported Km for Ac-SNKTRIDEANQRATKML-NH2 [[1-17], S N K T R I D E A N Q R A T K M L] (system: botox A (Clostridium botulinum)).
1700 µM

botox A (Clostridium botulinum) / Km / Ac-SNKTRIDEANQRATAML-NH2 [K15A, S N K T R I D E A N Q R A T A M L] : value?
~1000 µM

----------
Biological target: botox A (Clostridium botulinum)
Assay type: biochemical
Details: in 1/s
Friendly reminder: kcat below 6 is T, at or above is F.

Ac-SNKTRIDEANNRATKML-NH2 [Q11N, S N K T R I D E A N N R A T K M L]	F

Take the substance Ac-SNKTRIDQANQRATKML-NH2 [E8Q, S N K T R I D Q A N Q R A T K M L] and say whether its kcat is less than 6.
F

Regarding Ac-SNKTRIDEANQRATKML-NH2 [[1-17], S N K T R I D E A N Q R A T K M L] , kindly confirm whether its kcat is beneath 6.
F

kcat under 6? Item: Ac-SNKTRIDEAAQRATKML-NH2 [N10A, S N K T R I D E A A Q R A T K M L]
T

Is kcat strictly under 6 for the entry Ac-SNKTRINEANQRATKML-NH2 [D7N, S N K T R I N E A N Q R A T K M L] ?
T

Is kcat strictly under 6 for the entry Ac-SNKTRIDEANQRATKAL-NH2 [M16A, S N K T R I D E A N Q R A T K A L] ?
F

----------
Target: botox A (Clostridium botulinum)
Assay: biochemical
property label: Ki

Would you mind telling me what Ki value was observed for Ac-SNKTRIDEANQRLTKML-NH2 [A13L, S N K T R I D E A N Q R L T K M L] ?
1000 to 2000 µM

----------
Target: botox A (Clostridium botulinum)
Type: biochemical
Lab note - cut at 0.3 for Relative Rate (initial hydrolysis rates relative to peptide [1-17]): label 1 if strictly below, label 0 if not.

# example entries with known answers
Ac-SNKTRIDEANQRASKML-NH2 [T14S, S N K T R I D E A N Q R A S K M L]	label 1
Ac-SNKTRIDEANQRATK-NH2 [[1-15], S N K T R I D E A N Q R A T K]	label 1
Ac-SNKTRINEANQRATKML-NH2 [D7N, S N K T R I N E A N Q R A T K M L]	label 1
Ac-SNKTRIDQANQRATKML-NH2 [E8Q, S N K T R I D Q A N Q R A T K M L]	label 0
Ac-SNKTRIDEANARATKML-NH2 [Q11A, S N K T R I D E A N A R A T K M L]	label 1

Attention now turns to another entry.
Strictly below 0.3 in Relative Rate (initial hydrolysis rates relative to peptide [1-17])? Ac-SNKTRIDEANQAATKML-NH2 [R12A, S N K T R I D E A N Q A A T K M L]
label 1

----------
Molecular target: botox A (Clostridium botulinum, UniProt P0DPI1)
Sequence (P0DPI1 2-448 limits assumed): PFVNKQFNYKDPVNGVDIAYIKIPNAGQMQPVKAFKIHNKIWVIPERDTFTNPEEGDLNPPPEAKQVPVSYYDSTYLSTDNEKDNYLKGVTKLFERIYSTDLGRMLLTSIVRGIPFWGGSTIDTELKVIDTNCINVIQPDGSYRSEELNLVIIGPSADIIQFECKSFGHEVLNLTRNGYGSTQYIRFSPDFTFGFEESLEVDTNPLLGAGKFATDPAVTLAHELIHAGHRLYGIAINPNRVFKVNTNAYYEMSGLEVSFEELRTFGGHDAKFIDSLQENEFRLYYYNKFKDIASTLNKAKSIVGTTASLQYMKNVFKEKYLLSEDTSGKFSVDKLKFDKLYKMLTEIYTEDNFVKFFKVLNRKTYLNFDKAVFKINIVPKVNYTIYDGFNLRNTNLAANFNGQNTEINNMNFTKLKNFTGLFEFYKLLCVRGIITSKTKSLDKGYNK
Type: biochemical
Settings: in 1/s
property label: kcat

Ac-SNKTRIDEANQRATK-NH2 [[1-15], S N K T R I D E A N Q R A T K]	~1.0

Lookup: kcat / botox A (Clostridium botulinum, UniProt P0DPI1) / Ac-SNKTRIDEANQRATAML-NH2 [K15A, S N K T R I D E A N Q R A T A M L]
~8.0

Record lookup: for botox A (Clostridium botulinum, UniProt P0DPI1), what kcat belongs to Ac-SNKTRIDEANQRATKM-NH2 [[1-16], S N K T R I D E A N Q R A T K M] ?
6 ± 4
